assay: Cytotoxicity against african green monkey Vero cells; assay type: cell-based; settings: chlorocebus sabaeus, read-out: TC50 (the source's name)
READOUT KIND: CC50

So what's the measured CC50 for this one? C[C@@H](NC(=O)c1cccc(-c2c[nH]c(-c3cc4ccccc4cn3)n2)c1)c1ccc(F)cc1
> 100 µM

###

experiment: Antiviral activity against Human enterovirus 71 (strain BRCR) infected in african green monkey Vero cells assessed as inhibition of virus-induced cytopathic effect after 3 days by MTS-based CPE reduction assay; type: functional, cell-based; settings: Enterovirus A, 72 h
READOUT KIND: pEC50
The scale used: pEC50 is minus the common logarithm of the concentration in molar units.

So what's the measured pEC50 for this one? CC(C)S(=O)(=O)n1c(N)nc2ccc(/C(=N/O)c3ccccc3)cc21
6.82
